system name: Homeodomain-interacting protein kinase 1 (Homo sapiens);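 note: values are mean percent inhibition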
condition set: at 1 µM
Here the recorded inhibition is given for each entry.

mol smiles: COc1ccc(-c2oc3ncnc(N)c3c2-c2ccc(NC(=O)Nc3cc(C(F)(F)F)ccc3F)cc2)cc1
inhibition / %: 62

mol smiles: COc1ccc(-c2nn3ncccc3c2-c2ccnc(Nc3ccc4c(c3)OCCO4)n2)cc1
inhibition / %: -0.07

mol smiles: CC(=O)NCc1cccc(C#Cc2cncnc2Nc2ccc(OCc3cccc(F)c3)c(Cl)c2)c1
inhibition / %: 0.08

mol smiles: Nc1nc(-c2ccc(F)cc2)c(-c2ccc3ncccc3n2)s1
inhibition / %: 13.9

mol smiles: Cc1ccc2c(-c3ccnc(Nc4ccccc4)n3)c(-c3ccc(F)cc3)nn2n1
inhibition / %: 7.55

mol smiles: COc1cc(Nc2nccc(Nc3ccc4c(C)n[nH]c4c3)n2)cc(OC)c1OC
inhibition / %: 1.88

mol smiles: CCCN1CCC(c2ccc(Nc3nc(Nc4cc(F)ccc4C(N)=O)c4cc[nH]c4n3)c(OC)c2)CC1
inhibition / %: 81.5

mol smiles: O=C(O[C@H]1CN[C@H](C#Cc2cc3ncnc(Nc4ccc(Cc5ccccc5)cc4)c3s2)C1)N1CCOCC1
inhibition / %: 0.97

mol smiles: Fc1ccc(-c2nn3ccccc3c2-c2ccncc2)cc1
inhibition / %: 0.97

mol smiles: CCn1c(-c2nonc2N)nc2cnc(Oc3cccc(NC(=O)c4ccc(N(C)C)cc4)c3)cc21
inhibition / %: 1.69

mol smiles: CS(=O)(=O)CCNCc1coc(-c2ccc3ncnc(Nc4ccc(OCc5ccccc5)cc4)c3c2)c1
inhibition / %: 2.97

mol smiles: COc1cc2c(cc1Nc1nc(Nc3ccsc3C(N)=O)c3cc[nH]c3n1)N(C(=O)CN(C)C)CCC2(C)C
inhibition / %: 7.66

mol smiles: CCn1c(-c2nonc2N)nc2c(C#CC(C)(C)O)nc(OC[C@H](N)c3ccccc3)cc21
inhibition / %: 12.3

mol smiles: CCn1c(-c2nonc2N)nc2c(C#CC(C)(C)O)ncc(OC3CCNCC3)c21
inhibition / %: 4.91

mol smiles: COc1ccc2[nH]c3c4[nH]c5ccc(OC)cc5c4c4c(c3c2c1)C(=O)NC4=O
inhibition / %: 20.7

mol smiles: CCN1CCC(CC(=O)Nc2n[nH]c3nnc(-c4cccc(F)c4F)cc23)CC1
inhibition / %: 8.59

mol smiles: Fc1cccc(COc2ccc(Nc3ncnc4sc(-c5ccco5)cc34)cc2Cl)c1
inhibition / %: 5.88

mol smiles: Fc1ccc(-c2nn3ncccc3c2-c2ccnc(Nc3ccc4c(c3)OCCO4)n2)cc1
inhibition / %: -1.1

mol smiles: CC(=O)Nc1cccc(C#Cc2cncnc2Nc2ccc(OCc3cccc(F)c3)c(Cl)c2)c1
inhibition / %: -0.76

---

system name: cGMP-dependent protein kinase 2 (Homo sapiens) (UniProt Q13237)
Sequence (Q13237 whole entry): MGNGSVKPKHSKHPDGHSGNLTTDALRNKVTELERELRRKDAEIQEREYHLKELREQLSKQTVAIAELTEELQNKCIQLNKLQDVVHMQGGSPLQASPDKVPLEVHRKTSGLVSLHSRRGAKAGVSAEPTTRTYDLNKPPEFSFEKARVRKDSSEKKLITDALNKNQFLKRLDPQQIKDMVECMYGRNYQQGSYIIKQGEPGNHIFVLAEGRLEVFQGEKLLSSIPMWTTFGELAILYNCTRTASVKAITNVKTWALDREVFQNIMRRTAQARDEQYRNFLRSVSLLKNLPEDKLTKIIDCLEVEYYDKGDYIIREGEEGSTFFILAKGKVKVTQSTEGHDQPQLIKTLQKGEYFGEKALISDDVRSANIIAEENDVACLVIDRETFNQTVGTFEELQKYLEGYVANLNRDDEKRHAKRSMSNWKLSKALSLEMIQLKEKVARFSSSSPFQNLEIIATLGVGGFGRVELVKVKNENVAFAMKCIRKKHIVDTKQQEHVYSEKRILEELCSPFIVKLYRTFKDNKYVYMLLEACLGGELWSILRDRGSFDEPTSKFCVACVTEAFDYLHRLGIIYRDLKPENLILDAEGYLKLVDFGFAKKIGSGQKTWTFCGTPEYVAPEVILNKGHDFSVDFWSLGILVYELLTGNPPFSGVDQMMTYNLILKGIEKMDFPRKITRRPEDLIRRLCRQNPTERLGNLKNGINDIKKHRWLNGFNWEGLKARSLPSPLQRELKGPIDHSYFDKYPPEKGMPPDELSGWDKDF
condition set: at 1 µM
reported endpoint: inhibition (%)

mol smiles: COC(=O)c1sc(-n2cnc3cc(OC)c(OC)cc32)cc1OCc1ccccc1C(F)(F)F
system name: cGMP-dependent protein kinase 2 (Homo sapiens) (UniProt Q13237)
numeric result: 3.35
--
mol smiles: FC(F)(F)c1cccc(-c2nn3ncccc3c2-c2ccnc(Nc3ccc4c(c3)OCCO4)n2)c1
system name: cGMP-dependent protein kinase 2 (Homo sapiens) (UniProt Q13237)
numeric result: 3.03
--
mol smiles: N#Cc1c(NC(=O)CN2CCOCC2)sc2c1CCCC2
system name: cGMP-dependent protein kinase 2 (Homo sapiens) (UniProt Q13237)
numeric result: 2.65
--
mol smiles: Fc1cccc(COc2ccc(Nc3ncnc4sc(-c5ccco5)cc34)cc2Cl)c1
system name: cGMP-dependent protein kinase 2 (Homo sapiens) (UniProt Q13237)
numeric result: -0.65
--
mol smiles: COC(=O)Nc1nc2ccc(Oc3ccc(NC(=O)Nc4cccc(Cl)c4)cc3)cc2[nH]1
system name: cGMP-dependent protein kinase 2 (Homo sapiens) (UniProt Q13237)
numeric result: -0.85
--
mol smiles: CCCN1CCC(c2ccc(Nc3nc(Nc4cc(F)ccc4C(N)=O)c4cc[nH]c4n3)c(OC)c2)CC1
system name: cGMP-dependent protein kinase 2 (Homo sapiens) (UniProt Q13237)
numeric result: 47
--
mol smiles: CCCN(CCS(C)(=O)=O)Cc1ccc(-c2ccc3ncnc(Nc4ccc(OCc5cccc(F)c5)c(Cl)c4)c3c2)o1
system name: cGMP-dependent protein kinase 2 (Homo sapiens) (UniProt Q13237)
numeric result: 1.07
--
mol smiles: c1cc(-c2cnn3nc(N4CCOCC4)ccc23)nc(NC2CC2)n1
system name: cGMP-dependent protein kinase 2 (Homo sapiens) (UniProt Q13237)
numeric result: 11.9
--
mol smiles: COc1ccc(-c2cc(-c3c[nH]nc3-c3ccccn3)ccn2)cc1
system name: cGMP-dependent protein kinase 2 (Homo sapiens) (UniProt Q13237)
numeric result: 4.61
--
mol smiles: CNC(=O)c1cncc(/C=C/c2ccccc2Cl)c1
system name: cGMP-dependent protein kinase 2 (Homo sapiens) (UniProt Q13237);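 note: mean inhibition of PRKG2 from the GSK PKIS screen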
numeric result: 2.68
